Tested on: GRK4
reportedConditions: concentration: 1 μM, replicates: in singlicate; n = 1
valueKind: %Inh (%)
Give just the numeric value; % need not be written.

Sample answers from the record:
compound	targetUnderTest	unitSpec	%Inh
Cc1ccc(O)cc1Nc1cc(C(F)(F)F)nc2ccc(-c3ccncc3)cc12	GRK4	%	0
Cn1ccc2ncnc(Oc3ccc(NC(=O)Nc4cccnc4)c(Cl)c3)c21	GRK4	%	1
O=C(CCO)NCCn1ccc2ncnc(Nc3ccc(Oc4cccc(C(F)(F)F)c4)c(Cl)c3)c21	GRK4	%	0
CCn1c(-c2ccncc2)nc2cnccc21	GRK4	%	45
Nc1nc(-c2cccnc2)c(-c2ccnc3ccccc23)s1	GRK4	%	8

(Q) I'm curious: which %Inh was measured for `Cl.c1ccc(Cn2ccc3cc(Nc4ncnc5ccccc45)ccc32)cc1` tested on GRK4?
(A) 0

(Q) What do you have for `Cn1cc(-c2ccc3c(c2)CCN3C(=O)Cc2cccc(C(F)(F)F)c2)c2c(N)ncnc21` ?
(A) 100

(Q) What do you have for COc1ccc(Nc2nccc(N3CCC(NC(=O)c4cccc(NC(C)=O)c4)C3)n2)cc1 (stereo not drawn) ?
(A) 0

(Q) What do you have for `COc1ccc(-c2oc3ncnc(N)c3c2-c2ccc(OC)cc2)cc1` ?
(A) 9

###

Tested on: ERN1
reportedConditions: concentration: 1 μM, replicates: in singlicate; n = 1
valueKind: %Inh (%)
Give just the numeric value; % need not be written.

Sample answers from the record:
compound	unitSpec	%Inh
Clc1cccc(-c2nc(Nc3ccncc3)c3ccccc3n2)c1 [GW873004]	%	0
CNc1nccc(-c2c(-c3ccc(F)cc3)ncn2CCCN2CCOCC2)n1 [SB-222516]	%	0
Oc1ccc2ncnc(Nc3ccc(OCc4ccccc4)cc3)c2c1 [GI262866]	%	19
COc1cc2c(Nc3cccc(NC(=O)c4ccccc4)c3)ncnc2cc1OCCCN1CCOCC1 [GSK223810]	%	23

(Q) Field request: %Inh | item: Fc1cccc(COc2ccc(Nc3ncnc4sc(-c5ccc[nH]5)cc34)cc2Cl)c1 [GW707818]
(A) 10

###

System: NEK11
reportedConditions: concentration: 1 μM, replicates: in singlicate; n = 1
// reported %Inh per item
Give just the numeric value; % need not be written.

Sample answers from the record:
molecule	valueKind	measurement
O=C(Nc1ccccc1F)NC1CCN(c2ccnc(Nc3ccc(F)cc3)n2)C1 (stereo not drawn)	%Inh	2
CNc1nccc(-c2c(-c3ccc(F)cc3)ncn2C2CCN(C)CC2)n1	%Inh	0
Cl.Cl.c1ccc(-c2cc3ccncc3cc2OC2CCNCC2)cc1	%Inh	0
Nc1nc(-c2ccc3c(N)n[nH]c3c2)cc(N2CCCCC2)n1	%Inh	0
NC(=O)c1sc(-n2cnc3ccccc32)cc1OCc1ccccc1F	%Inh	32
FC(F)(F)c1cc(Nc2nccc(-c3c(-c4ccc(Cl)cc4)nn4ncccc34)n2)ccc1Cl	%Inh	0
Cn1cc(-c2ccc3c(c2)CCN3C(=O)Cc2cccc(C(F)(F)F)c2)c2c(N)ncnc21	%Inh	14
Cn1ccc2ncnc(Oc3ccc(NC(=O)Nc4cccnc4)c(Cl)c3)c21	%Inh	0

Kindly consider the entry below.
(Q) Field request: %Inh | item: `O=C(Nc1ccccc1)Nc1ccc(Oc2ccc3nccn3n2)cc1`
(A) 0

###

Test system: JAK1(JH2domain-pseudokinase)
valueKind: Kd (nM)
Give just the numeric value; nM need not be written.

(Q) I'm curious: which Kd was measured for CC(C)(C)c1ccc(-n2cnc3c(N)ncnc32)cc1 [SKF-97263] tested on JAK1(JH2domain-pseudokinase)?;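 further: kd values determined as follow-up on hits from a single-replicate KINOMEscan panel screen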
(A) 250
